# System under test: full-length beta-Catenin (Uniprot ID P35222) (Homo sapiens)
# Construct: 10 nM full-length beta-Catenin (Uniprot ID P35222)
# Sequence (P35222 1-781): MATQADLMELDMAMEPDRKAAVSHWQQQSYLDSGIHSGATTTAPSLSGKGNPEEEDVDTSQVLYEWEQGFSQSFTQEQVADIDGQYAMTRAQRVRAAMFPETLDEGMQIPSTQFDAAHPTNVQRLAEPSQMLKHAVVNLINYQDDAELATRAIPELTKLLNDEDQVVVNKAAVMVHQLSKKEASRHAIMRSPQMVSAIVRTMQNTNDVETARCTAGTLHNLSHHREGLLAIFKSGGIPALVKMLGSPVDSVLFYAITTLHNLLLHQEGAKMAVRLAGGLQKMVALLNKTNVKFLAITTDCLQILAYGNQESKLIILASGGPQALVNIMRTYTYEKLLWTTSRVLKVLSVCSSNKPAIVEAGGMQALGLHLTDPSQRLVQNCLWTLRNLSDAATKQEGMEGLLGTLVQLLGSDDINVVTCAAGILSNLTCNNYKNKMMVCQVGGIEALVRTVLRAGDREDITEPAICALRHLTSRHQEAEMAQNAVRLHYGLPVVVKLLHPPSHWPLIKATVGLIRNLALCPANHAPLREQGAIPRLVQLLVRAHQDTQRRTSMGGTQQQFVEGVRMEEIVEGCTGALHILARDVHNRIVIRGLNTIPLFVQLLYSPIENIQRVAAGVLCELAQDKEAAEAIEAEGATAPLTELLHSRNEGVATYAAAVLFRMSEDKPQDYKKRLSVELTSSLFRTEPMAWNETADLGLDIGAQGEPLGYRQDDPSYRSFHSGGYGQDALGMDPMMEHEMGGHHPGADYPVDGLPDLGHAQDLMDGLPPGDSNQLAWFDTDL
# Protocol details: Fluorescence polarization IC50 (beta-catenin / 5FAM-TCF4 10-53 competition)
# Format: binding
# Protocol conditions: fluorescence polarization; read-out: beta-Catenin FP IC50
Entries and their measured pIC50 follow.
Would you please state pIC50, meaning minus log10 of the concentration in mol/L, as a bare number?

Field: example entries. Status: answers known.
CC(=O)N1CCC[C@]12CC=CCCCC1(CCCC=CCCCOC(=O)N3CC[C@@](C(=O)N[C@@H](Cc4ccccc4)C(=O)N[C@@H](Cc4csc5ccccc45)C(=O)N[C@@H](CCC(N)=O)C(N)=O)(C3)NC(=O)[C@H](CC(C)C)NC(=O)[C@H](Cc3ccccc3)NC(=O)[C@H](C)NC(=O)[C@H](CCCCNC(C)C)NC(=O)[C@H]([C@@H](C)O)NC(=O)[C@H](CC(=O)O)NC1=O)NC(=O)[C@H](CC(C)(C)C)NC(=O)[C@H](CC(N)=O)NC2=O (stereo partly drawn); 5.93
CC(=O)N1CCC[C@]12CC=CCCCC1(CCCC=CCCCCCC[C@@](C)(C(=O)N[C@@H](Cc3ccsc3)C(=O)N[C@@H](Cc3csc4ccccc34)C(=O)N[C@@H](CCC(N)=O)C(N)=O)NC(=O)[C@H](CC(N)=O)NC(=O)[C@H](Cc3ccccc3)NC(=O)[C@H](C)NC(=O)[C@H](C)NC(=O)[C@H](CC(=O)O)NC(=O)[C@H](CC(=O)O)NC1=O)NC(=O)[C@H](CC(C)(C)C)NC(=O)C[C@H](CC(=O)O)NC2=O (stereo partly drawn) [I-1163]; 6.16

Let's switch to this compound now.
Sample CC(=O)N1CCC[C@]12CC=CCCCC1(CCCC=CCCCOC(=O)N3CC[C@@](C(=O)N[C@@H](Cc4ccccc4Cl)C(=O)N[C@@H](Cc4csc5ccccc45)C(=O)N[C@@H](C)C(N)=O)(C3)NC(=O)[C@H](CO)NC(=O)[C@H](Cc3ccccc3)NC(=O)[C@H](C)NC(=O)[C@H](C)NC(=O)[C@H](Cc3cccc(C(=O)O)c3)NC(=O)[C@H](CC(=O)O)NC1=O)NC(=O)[C@H](CC(C)(C)C)NC(=O)[C@H](CC(=O)O)NC2=O (stereo partly drawn) — what was its pIC50?
7.89
